Provide the recorded TGI for the entries that follow.
test system: SF-539 CNS; assay: NCI tumour cell line growth inhibition, 48 h
*1 amine or outer side, *2 acyl side, *3 side chain or, on linkers, in order; H or OH if unused. Where a SMILES comes first, the peptide text is derived from it. [ ]: non-standard residue; d: D form. X32 = C[C@H](N[*:1])C(=O)C(C)(C)C(=O)[*:2]; Hmpa(2S,3S) = CC[C@H](C)[C@H](O)C(=O)O; NMeY = CN[C@@H](Cc1ccc(O)cc1)C(=O)O; NMeL = CN[C@@H](CC(C)C)C(=O)O; NMeV = CN[C@H](C(=O)O)C(C)C; βAla = NCCC(=O)O

Entry Cc1cc(=O)oc2c(CNC(Cc3ccccc3)C(=O)O)c(O)ccc12 (stereo not given) ; TGI = > 100 µM

CC[C@H](C)[C@@H]1OC(=O)CCNC(=O)[C@@H](C)NC(=O)C(C)(C)C(=O)[C@H](C)NC(=O)[C@H](Cc2ccc(OC)cc2)N(C)C(=O)[C@H](C(C)C)N(C)C(=O)CNC(=O)[C@H](CC(C)C)N(C)C(=O)CNC1=O (cyclo(G[NMeL]G[NMeV][NMeY](Me)[X32][dA][βAla][Hmpa(2S,3S)])) has a reported TGI of > 33.6 µM

Sure, the documented TGI for N#CC1CC2(CCN1C(=O)c1ccccc1)OCCO2 (stereo not given) is > 100 µM

Noted for `Cc1cc(C)c(-n2c(-c3ccc(Br)cc3)cs/c2=N\N=C2C=C(C(C)(C)C)C(=O)C(C(C)(C)C)=C2)c(C)c1` : its TGI reads > 100 µM

Measured TGI of CCOc1ccc2nc(NC(=O)C(=O)C(c3cnc4ccccc4n3)[N+](=O)[O-])sc2c1 (stereo not given) : > 100 µM

TGI reading for C=CCC1C(=O)CC2(C)CC(=O)C(CC=C)C12C (stereo not given) : > 100 µM

Briefly, TGI measured for `O=C(Nc1nc(C23CC4CC(CC(C4)C2)C3)cs1)c1cc2ccccc2oc1=O` : > 100 µM

TGI recorded for this compound, `CCNC(=O)O[C@H]1CN[C@H](C#Cc2cc3ncnc(Nc4ccc(OCc5cccc(F)c5)c(Cl)c4)c3s2)C1` , is > 18.4 µM

Entry under test: `COC(=O)c1c2cccccc-2c(Cc2c3cccccc-3c(C(=O)OC)c2O)c1O` . Its TGI was > 100 µM

The compound identified as `N/C(=N\N=C\c1ccc2c(c1)OCCO2)NO` registered its TGI at > 81.1 µM

###

Field: GI50. Provide a value for each of the compounds that follow.
tested on: HCC-2998 colon; assay: NCI tumour cell line growth inhibition, 48 h

Kindly note the recorded GI50 for `C[N+]1=C(/C=C\C=C\c2ccccc2)C(C)(C)c2ccccc21` , which is 3.28 µM

Cc1cnc(C(=O)NNc2nc3sc4c(c3c(=O)n2C)C(C)CCC4)cn1 (stereo not drawn) has a reported GI50 of 0.529 µM

In plain terms, `CCOC(=O)c1c2c(n3ccccc13)C(=O)c1ncccc1C2=O` has a documented GI50 of 0.877 µM

###

system: 786-0 renal; test: NCI tumour cell line growth inhibition, 48 h
Would you mind telling me the reported TGI of each entry?

Data point: C=CCC1C(=O)CC2(C)CC(=O)C(CC=C)C12C (stereo unspecified) ; TGI = > 100 µM

Lab note: measured TGI of COc1ccc(/C=C2\CCC(C)C3=C2N=c2s/c(=C/c4cccc(Br)c4)c(=O)n2C3c2ccc(OC)c(OC)c2)cc1OC (stereo unspecified) was > 100 µM

Value of measured TGI for the entry `Cc1ccc(NC(=O)c2cc(S(=O)(=O)Nc3nc4ncccc4[nH]3)c(SSc3cc(Cl)c(C(=O)Nc4ccc(C)cc4)cc3S(=O)(=O)Nc3nc4ncccc4[nH]3)cc2Cl)cc1` : > 100 µM

Value of measured TGI for the entry COc1ccc(C2ON(c3cccc(C)n3)CC=C2C)cc1 (stereo unspecified) : > 100 µM

Consider `C=C(Br)CNC(=O)CCC(=O)NCC(=C)Br` . Its measured TGI is > 100 µM

// field: TGI; key: `NC(N)=NS(=O)(=O)c1ccc(Nc2c3ccccc3nc3c(C(=O)Nc4ccc(S(N)(=O)=O)cc4)cccc23)cc1` ; value = > 100 µM

Value of measured TGI for the entry `C(=C\c1ccco1)/c1cccc(/C=C/c2ccco2)n1` : > 50 µM

Form field TGI, entry `Cc1cc(C)cc(NC(N)=S)c1` : > 100 µM

TGI in this record for C=CC(Cl)(CBr)CCC(Br)C(C)(C)Cl (stereo unspecified) : 28.1 µM

Record `OCCNCNc1nc(NCNCCO)nc(N(CNCCO)CNCCO)n1` , field TGI: 36.5 µM

Entry `COc1ccc2c(c1)CCc1c-2n(CCN2CCCCC2)c2ccc(OC)cc12` ; TGI = > 100 µM

###

system: HOP-92 NSCLC; assay: NCI tumour cell line growth inhibition, 48 h
Please respond with reported TGI for every item in the list.

TGI reported for this compound `CCN1CCN(CC(=O)N2c3cccc4cccc(c34)N(C(=O)CN3CCN(CC)CC3)C2c2cn(-c3ccccc3)nc2-c2cccc([N+](=O)[O-])c2)CC1` : 2.49 µM

Notebook: `CN(C)CCNC(=O)c1ccc(NC(=O)c2nc([N+](=O)[O-])cn2C)cc1` , TGI read as > 100 µM

compound `O=C1c2ccccc2-c2c1c1ccccc1c(=O)n2CCCn1ccnc1` , TGI observed: 6.45 µM

Lab note: measured TGI of `CN(C)c1ccc(/C=c2\sc3nc4ccccc4n3c2=O)cc1` was > 100 µM

Field TGI (entry `CC(C)(C)c1cc(O)ccc1O` ) reads > 79.2 µM

According to the records, this compound CCN1CCC(O)(c2ccc(Cl)cc2)C(C(=O)c2ccc(Cl)cc2)C1 (configuration not stated) displays TGI of > 100 µM

The compound listed as `CCOC(=O)c1[nH]c(COC(C)=O)c2c1CCCCCCCCCC2` shows TGI equal to > 100 µM

The compound listed as `O=C(Nc1nc(C23CC4CC(CC(C4)C2)C3)cs1)c1cc2ccccc2oc1=O` shows TGI equal to > 100 µM

Record summary for `Cc1ccc(NC(=O)c2cc(S(=O)(=O)Nc3nc4ncccc4[nH]3)c(SSc3cc(Cl)c(C(=O)Nc4ccc(C)cc4)cc3S(=O)(=O)Nc3nc4ncccc4[nH]3)cc2Cl)cc1` : reported TGI = > 100 µM

Record summary for CC(=O)OCC1OC(n2c(-c3ccc(C)cc3)cc(-c3ccccc3)c(C#N)c2=S)C(OC(C)=O)C(OC(C)=O)C1OC(C)=O (configuration not stated) : reported TGI = > 100 µM

For Cc1cc(Cl)ccc1NC(=O)CC1SC(=Nc2ccccc2Cl)NC1=O (configuration not stated) the compound record lists TGI as > 100 µM

Notebook: `COc1cc(/C=C/C(=O)C2(C(=O)/C=C/c3cc(OC)c(OC)c(OC)c3)CCCCC2)cc(OC)c1OC` , TGI read as 68 µM

TGI reading for `COC(=O)CC[C@H](Cc1ccccc1)NC(=O)c1csc([C@@H](C[C@H](C(C)C)N(C)C(=O)[C@@H](NC(=O)[C@H]2CCCCN2C)C(C)C)OC(C)=O)n1` : > 25 µM

The reported value for C=C1CC2(OC1=O)C(=O)Nc1ccccc12 (configuration not stated) in terms of TGI is 2.75 µM

Reported TGI for `Cc1cn(-c2cc(NC(=O)c3ccc(C)c(Nc4nccc(-c5cccnc5)n4)c3)cc(C(F)(F)F)c2)cn1` was > 100 µM

The recorded TGI for `Cc1cccc(C)c1NC(=O)C(=O)Nn1c(NN)nc2ccccc2c1=O` is > 100 µM

Per the records, this compound ( CCOC(=O)CCC(NC(=O)c1ccc(OCc2ccc3nc(-c4ccccc4)c(Cl)nc3c2)cc1)C(=O)OCC (configuration not stated) ) has TGI equal to 25.5 µM

###

system: SF-539 CNS; assay: NCI tumour cell line growth inhibition, 48 h
Consider the following compounds; for each one, report its TGI.

Cc1cc2c([nH]c3ccccc32)c2c1OC(C)(C)C1C3CC(C)(C)Oc4c(C)cc5c6ccccc6n(c5c43)C21 (stereo not drawn) yielded TGI of > 100 µM

The compound identified as `N#Cc1cccc(/C=N/N=C(\N)NO)c1` registered its TGI at > 100 µM

Reported TGI for `O=c1c2cc(Cl)ccc2sc2cccc(Cl)c12` was > 100 µM

###

Answer each item with its documented TGI.
system: ACHN renal; test: NCI tumour cell line growth inhibition, 48 h
Only the number, expressed in µM, is required.

Summary for this compound, `O=C1c2ccccc2-c2c1c1ccccc1c(=O)n2CCCn1ccnc1` : TGI is 3.43

Lookup result for `BrC(c1cccc2ccccc12)c1cccc2ccccc12` ; measured TGI: 52.3

Value of TGI reported for the compound `CCN1CCN(CC(=O)N2c3cccc4cccc(c34)N(C(=O)CN3CCN(CC)CC3)C2c2cn(-c3ccccc3)nc2-c2cccc([N+](=O)[O-])c2)CC1` is 3.08
